Examples of substances with documented Percent of Control Activity follow.
test system: H4-IIE Cells; test: Glucose production in cultured H4-IIE cells; format: cell-based, rat; details: glucose concentration in medium relative to untreated cells; 5 μM peptide, 24 h
Measured endpoint: Percent of Control Activity (%)

100 (MPIIRRMSWSP) [compound 100]; 123
163 (MWMPPTLPHIR) [compound 163]; 110
90 (MMSVWKVAVQTFNCYYYVLQALIN) [compound 90]; 104
1 (MAAAPSGCPDPTS) [compound 1]; 128
202 (MWVIEEYAKILRSWVWFNPPQLPA) [compound 202]; 103
128 (MSWSNIEVVNPIVDMDS) [compound 128]; 93
27 (MGCDDNVVDVVVT) [compound 27]; 100
205 (VQTVSISWASEMLVLVSFVVSV) [compound 205]; 102
82 (MMGITMKKIITNAWAVTMTL) [compound 82]; 114
172 (MYTNKQCSTSNYY) [compound 172]; 111
73 (MLRSMLWNLWSKPQFHAHRP) [compound 73]; 111
16 (MDSWVVGVNEWG) [compound 16]; 89

---

Entries and their Percent of Control Activity values follow.
tested on: H4-IIE Cells; assay: Glucose production in cultured H4-IIE cells; assay type: cell-based, rat; details: glucose concentration in medium relative to untreated cells; 5 μM peptide, 24 h
Measured endpoint: Percent of Control Activity (%)

191 (LGWGWPGGWVWGGGFMVEERWWEL) [compound 191]; 111
143 (MVGYLIPVWVLAIVCSDMLKPLS) [compound 143]; 111
110 (MQPYRRYRFHPRLSMIYPTLQLM) [compound 110]; 108
142 (MVEVGYNVVRVV) [compound 142]; 103
4 (MAHTFPLNKTSR) [compound 4]; 116
105 (MPRKCWLYPSRTN) [compound 105]; 118
109 (MQNPPHSSPHSSPLPRYSYLSPLLY) [compound 109]; 105
85 (MMKLRLTPWRLPDPPNHH) [compound 85]; 108
80 (MMDPEHMNSMALKKAWVQMC) [compound 80]; 111
19 (METDLDYSGLNSDHVGL) [compound 19]; 99
108 (MQFTLATPKCYGPGA) [compound 108]; 104
139 (MTWPTEQVTLGMTAQSYS) [compound 139]; 97
78 (MMAHLGKKPVSGG) [compound 78]; 114
48 (MHKRLSPIYYSHRYLPDKRL) [compound 48]; 101
47 (MHKHYYNKHPHHYNLP) [compound 47]; 107
39 (MGNIIRAWCGEGCL) [compound 39]; 114
87 (MMMFVYSAMKN) [compound 87]; 109

---

# maps each entry to its Percent of Control Activity
test system: C2C12 Cells; experiment: Glucose utilization in cultured C2C12 cells (myotubes); assay type: cell-based, mouse; settings: glucose concentration in medium relative to untreated cells; 5 μM peptide, 22 h
Measured endpoint: Percent of Control Activity (%)

190 (MYHSENSMMDHVTNNATGMNIMEK) [compound 190]; 107
174 (MYYSDGYWGVSWGMGV) [compound 174]; 93
172 (MYTNKQCSTSNYY) [compound 172]; 106
196 (LVPFDRGDLEGELTGTGMLACVIL) [compound 196]; 97
89 (MMNSDSIIPS) [compound 89]; 112
205 (VQTVSISWASEMLVLVSFVVSV) [compound 205]; 99
58 (MKPMSPMRLY) [compound 58]; 101
57 (MKPFTVHSTLQSNPFSSPWMTPL) [compound 57]; 107
136 (MTNTLNSIHPPLP) [compound 136]; 99
73 (MLRSMLWNLWSKPQFHAHRP) [compound 73]; 111
155 (MVVCMVITFIWSCTKIFGA) [compound 155]; 107
107 (MPTPILIFRSPWSLYSYPT) [compound 107]; 110
83 (MMGMWLVGHYVLSC) [compound 83]; 95
149 (MVLSSPPIFRMSCSLL) [compound 149]; 100
47 (MHKHYYNKHPHHYNLP) [compound 47]; 103
142 (MVEVGYNVVRVV) [compound 142]; 95
169 (MYLNGTCSAS) [compound 169]; 107
71 (MLPLHIYHNTMGLTHPPH) [compound 71]; 105
80 (MMDPEHMNSMALKKAWVQMC) [compound 80]; 99
109 (MQNPPHSSPHSSPLPRYSYLSPLLY) [compound 109]; 95
1 (MAAAPSGCPDPTS) [compound 1]; 99
147 (MVLFLLGMVG) [compound 147]; 107
37 (MGLLEWLLCWHLLGRIINWWA) [compound 37]; 109
192 (LGWVVGSFFMGGVWVGRSGIGGML) [compound 192]; 98
54 (MKFEIWLGWC) [compound 54]; 103

---

tested on: C2C12 Cells; assay: Glucose utilization in cultured C2C12 cells (myotubes); type: cell-based, mouse; conditions: glucose concentration in medium relative to untreated cells; 5 μM peptide, 22 h
Measured endpoint: Percent of Control Activity

144 (MVIICFEVSLISHCWVVISRLLM) [compound 144]; 105%
128 (MSWSNIEVVNPIVDMDS) [compound 128]; 103%
124 (MSSAWIIWFRLFSI) [compound 124]; 96%
195 (LTSKYSNQPSTITHQLQLQSHPSP) [compound 195]; 112%
15 (MDMVPQGKDEKL) [compound 15]; 96%
122 (MSNNMAFSTFKG) [compound 122]; 103%

---

Percent of Control Activity by entry:
system: C2C12 Cells; experiment: Glucose utilization in cultured C2C12 cells (myotubes); type: cell-based, mouse; conditions: glucose concentration in medium relative to untreated cells; 5 μM peptide, 22 h
Measured endpoint: Percent of Control Activity (%)

4 (MAHTFPLNKTSR) [compound 4]; 101
91 (MMTHPTTPLTINTKPP) [compound 91]; 109
112 (MQSGVLQSLAVTEIKYCNLL) [compound 112]; 93
139 (MTWPTEQVTLGMTAQSYS) [compound 139]; 100
168 (MYCNWDCSGE) [compound 168]; 103
159 (MWGVSDMLVFLEV) [compound 159]; 102
180 (MVVGSWCWSLSWVVGMR) [compound 180]; 103
41 (MGSSRINPDPSPS) [compound 41]; 109
5 (MAHYSQIPSRPHGWPPSD) [compound 5]; 101
98 (MNPDQPHHLLLSLYTAIFSKPWW) [compound 98]; 91
90 (MMSVWKVAVQTFNCYYYVLQALIN) [compound 90]; 97
162 (MWLVLWLWML) [compound 162]; 103
184 (MASAKGCSSP) [compound 184]; 106
170 (MYNYAKAPTL) [compound 170]; 106
145 (MVKPHLQNASI) [compound 145]; 103
20 (MFDQENVVTSTESSPS) [compound 20]; 102
130 (MTAPVKLQGVWM) [compound 130]; 103
30 (MGEGLEENPTNPITKPTLN) [compound 30]; 102
48 (MHKRLSPIYYSHRYLPDKRL) [compound 48]; 104
6 (MAIAVVYPKTTIIPPK) [compound 6]; 100
108 (MQFTLATPKCYGPGA) [compound 108]; 96
177 (MRMGASIGSTTRLSTS) [compound 177]; 91
181 (MCHWAGGASNTGDA) [compound 181]; 107
27 (MGCDDNVVDVVVT) [compound 27]; 95
9 (MAQTMPMYPNGSFFPE) [compound 9]; 98

---

system: C2C12 Cells; assay: Glucose utilization in cultured C2C12 cells (myotubes); format: cell-based, mouse; conditions: glucose concentration in medium relative to untreated cells; 5 μM peptide, 22 h
Quick reference for Percent of Control Activity among some substances
Measured endpoint: Percent of Control Activity (%)

68 (MLLNSHRCSMSKDNHHSP) [compound 68]; 99
23 (MFHLRYHNHRYPHRRQSI) [compound 23]; 99
141 (MVEGWLLYLLVSMG) [compound 141]; 97
13 (MCSCVYVYSYCKYMVCSHDKP) [compound 13]; 101
210 (MKVDATMDFT) [compound 210]; 92
66 (MLLGWRFQLGAWVGGLQ) [compound 66]; 101
189 (FEELINVWVWVYMSQWEFYDGPCN) [compound 189]; 98
178 (MVQTVSISWASEMLVLVSFVVSV) [compound 178]; 99
182 (MFAVSMMWSLE) [compound 182]; 98
3 (MAGGFMLMIVVMKLMAPKMEETPA) [compound 3]; 94
156 (MVVHWMSGVGLPWLWGVGV) [compound 156]; 85
84 (MMKGKMKWKVKNRV) [compound 84]; 95
97 (MNNSSSTVQP) [compound 97]; 95
129 (MSYRAHTPKMLVMPFPY) [compound 129]; 110
39 (MGNIIRAWCGEGCL) [compound 39]; 107
198 (PIVTIMSPSWLEVEKATIFLMSFC) [compound 198]; 88
50 (MHQSCKPEMKTFFQGQI) [compound 50]; 99
188 (DWSNWVWGVQLYVWDFLGSGCWAW) [compound 188]; 113
105 (MPRKCWLYPSRTN) [compound 105]; 114
154 (MVSSGDWYSWCE) [compound 154]; 107
203 (KNIEAPLAW) [compound 203]; 98
207 (VVGSWCWSLSWVVGMR) [compound 207]; 90
82 (MMGITMKKIITNAWAVTMTL) [compound 82]; 105
